assay: Stability of cannabinoid and Vitamin E components of Beverage 1 (AB White) stored at 8° C. and 21-25° C., LCMSMS over 570 days; format: physicochemical; details: beverage stored at 8° C., day 30
# Stability in AB White, 8° C. (content by LCMSMS) >= 5 µg/mL gives met, anything below gives not met

Incoming: Determine whether this compound has Stability in AB White, 8° C. (content by LCMSMS) no lower than 5 µg/mL: CCCCCc1cc(O)c(C/C=C(\C)CCC=C(C)C)c(O)c1
Outgoing: not met

Others:
Incoming: Determine whether this compound has Stability in AB White, 8° C. (content by LCMSMS) no lower than 5 µg/mL: CCCCCc1cc2c(c(O)c1C(=O)O)[C@@H]1C=C(C)CC[C@H]1C(C)(C)O2 [D9 THCA, delta-9-tetrahydrocannabinolic acid]
Outgoing: not met

Incoming: Determine whether this compound has Stability in AB White, 8° C. (content by LCMSMS) no lower than 5 µg/mL: C=C(C)[C@@H]1CCC(C)=C[C@H]1c1c(O)cc(CCCCC)c(C(=O)O)c1O
Outgoing: not met

Incoming: Determine whether this compound has Stability in AB White, 8° C. (content by LCMSMS) no lower than 5 µg/mL: CCCc1cc(O)c2c(c1)OC(C)(C)[C@@H]1CCC(C)=C[C@@H]21 [THCV, delta-9-tetrahydrocannabivarin]
Outgoing: not met

Incoming: Determine whether this compound has Stability in AB White, 8° C. (content by LCMSMS) no lower than 5 µg/mL: CCCCCc1cc(O)c2c(c1)OC(C)(C)[C@@H]1CCC(C)=C[C@@H]21 [D9 THC, delta-9-tetrahydrocannabinol, reference compound]
Outgoing: met

Incoming: Determine whether this compound has Stability in AB White, 8° C. (content by LCMSMS) no lower than 5 µg/mL: C=C(C)[C@@H]1CCC(C)=C[C@H]1c1c(O)cc(CCCCC)cc1O [CBD, cannabidiol, reference compound]
Outgoing: met

Incoming: Determine whether this compound has Stability in AB White, 8° C. (content by LCMSMS) no lower than 5 µg/mL: CCCCCc1cc(O)c2c(c1)OC1(C)CCC3C1C2C3(C)C (stereo not shown)
Outgoing: not met

###

assay: Stability of cannabinoid and Vitamin E components of Beverage 1 (AB White) stored at 8° C. and 21-25° C., LCMSMS over 570 days; type: physicochemical; settings: beverage stored at 21-25° C., day 12
Dear colleague, classification is by Stability in AB White, 21-25° C. (content by LCMSMS), with ranges listed here: low bracket: < 0.5 µg/mL; middle bracket: ≥ 0.5 µg/mL and < 3 µg/mL; high bracket: ≥ 3 µg/mL

Incoming: Hello team, could you let me know which band the following compound falls into: CCCCCc1cc2c(c(O)c1C(=O)O)[C@@H]1C=C(C)CC[C@H]1C(C)(C)O2 [D9 THCA, delta-9-tetrahydrocannabinolic acid]
Outgoing: middle bracket

Incoming: Hello team, could you let me know which band the following compound falls into: CCCCCc1cc(O)c2c(c1)OC1(C)CCC3C1C2C3(C)C (stereo not drawn) [CBL, cannabicyclol]
Outgoing: middle bracket

Incoming: Hello team, could you let me know which band the following compound falls into: C=C(C)[C@@H]1CCC(C)=C[C@H]1c1c(O)cc(CCCCC)c(C(=O)O)c1O [CBDA, cannabidiolic acid]
Outgoing: middle bracket

Others:
Incoming: Hello team, could you let me know which band the following compound falls into: CCCCCc1cc(O)c2c(c1)OC(C)(C)[C@@H]1CCC(C)=C[C@@H]21 [D9 THC, delta-9-tetrahydrocannabinol, reference compound]
Outgoing: high bracket

Incoming: Hello team, could you let me know which band the following compound falls into: CCCCCc1cc(O)c2c(c1)OC(C)(C)c1ccc(C)cc1-2 [CBN, cannabinol]
Outgoing: middle bracket

Incoming: Hello team, could you let me know which band the following compound falls into: CCCCCc1cc(O)c2c(c1)OC(C)(CCC=C(C)C)C=C2 (stereo not drawn) [CBC, cannabichromene]
Outgoing: low bracket

Incoming: Hello team, could you let me know which band the following compound falls into: CCCCCc1cc(O)c(C/C=C(\C)CCC=C(C)C)c(O)c1 [CBG, cannabigerol]
Outgoing: high bracket

Incoming: Hello team, could you let me know which band the following compound falls into: CCCc1cc(O)c2c(c1)OC(C)(C)[C@@H]1CCC(C)=C[C@@H]21 [THCV, delta-9-tetrahydrocannabivarin]
Outgoing: high bracket

Incoming: Hello team, could you let me know which band the following compound falls into: C=C(C)[C@@H]1CCC(C)=C[C@H]1c1c(O)cc(CCC)cc1O [CBDV, cannabidivarin]
Outgoing: low bracket
